Form field: inhibition at 1 µM (one value per entry).
molecular target: RORγt (Homo sapiens, UniProt P51449); assay: RORγt binding test using fluorescent-labeled synthetic ligand (TR-FRET); details: read-out: Binding inhibitory rate of fluorescent-labeled synthetic ligand to RORγt at test compound 1 μM (%)
Sequence (P51449 1-497 isoform P51449-2, species assumed): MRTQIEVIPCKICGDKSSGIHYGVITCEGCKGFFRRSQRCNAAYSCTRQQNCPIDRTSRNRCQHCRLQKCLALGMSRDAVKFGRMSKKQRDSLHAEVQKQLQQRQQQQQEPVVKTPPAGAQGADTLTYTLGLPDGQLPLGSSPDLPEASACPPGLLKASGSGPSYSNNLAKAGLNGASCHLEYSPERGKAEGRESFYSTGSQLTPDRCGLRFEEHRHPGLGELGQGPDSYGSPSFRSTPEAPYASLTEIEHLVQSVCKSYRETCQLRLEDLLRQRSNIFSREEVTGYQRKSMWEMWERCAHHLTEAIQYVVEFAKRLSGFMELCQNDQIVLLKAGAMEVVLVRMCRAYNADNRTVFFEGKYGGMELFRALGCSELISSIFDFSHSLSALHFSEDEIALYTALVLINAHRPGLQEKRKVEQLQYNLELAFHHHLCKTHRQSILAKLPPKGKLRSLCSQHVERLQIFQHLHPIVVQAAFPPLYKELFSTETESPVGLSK
Please state the figure in %; there is no need to write the unit.

Examples with their reported inhibition at 1 µM follow.
COMPOUND: COc1ccc2c(c1)CCN(C(=O)c1cc(O)no1)[C@H]2C(=O)Nc1ccc(C(C)(C)COCC(F)F)c(F)c1 [Example 75]
RESULT_TYPE: inhibition at 1 µM
MEASUREMENT_UNIT: %
VALUE_REPORTED: 102

COMPOUND: C[Si](C)(C)c1c(F)cc(NC(=O)[C@H]2c3ccc4c(c3CCN2C(=O)N2CC(CC(=O)O)C2)OCO4)cc1F [Example 272]
RESULT_TYPE: inhibition at 1 µM
MEASUREMENT_UNIT: %
VALUE_REPORTED: 102

Now turn to the next compound.
Value of inhibition at 1 µM reported for the compound COc1ccc2c(c1)CCN(C(=O)CCc1cc(O)no1)[C@H]2C(=O)Nc1cc(F)c2c(c1)CCC2(C)C [Example 63] is 102

----------
Molecular target: RORγt (Homo sapiens, UniProt P51449)
Assay: RORγt binding test using fluorescent-labeled cholesterol (TR-FRET)
Conditions: read-out: Binding inhibitory rate of fluorescent-labeled cholesterol to RORγt at test compound 1 μM (%)
Description: RORγt Binding Test Using Fluorescent-labeled Cholesterol The binding activity of the test compound to RORγt was measured by a time resolved fluorescence resonance energy transfer method (TR-FRET) utilizing histidine-tagged RORγt, fluorescent-labeled cholesterol (BODIPY-cholesterol, AVIVA), and terbium-labeled anti-histidine tag antibody (Invitrogen). First, a test compound diluted with an assay buffer (20 mM Tris-HCl (pH 7.5), 100 mM NaCl, 1 mM DTT, 0.1% BSA) was added to a 384 well plate by 3 μL. […]
RESULT_TYPE: inhibition at 1 µM (%)
The reply should contain only the number, in %.

COMPOUND: CCOC(=O)C(C)(C)c1ccc(NC(=O)C2c3ccc(OC)cc3CCN2C(=O)c2cc(O)no2)cc1F (stereo not shown)
ASSAY_TARGET: RORγt (Homo sapiens, UniProt P51449)
inhibition at 1 µM, %: 103

Briefly, inhibition at 1 µM measured for COCC(C)(C)c1c(F)cc(NC(=O)[C@H]2c3ccc(OC)cc3CCN2C(=O)c2cc(O)no2)cc1F : 102

What the record says about CCOCC(C)(C)c1c(F)cc(NC(=O)[C@H]2c3ccc(OCC)cc3CCN2C(=O)Cc2cc(O)no2)cc1F : inhibition at 1 µM is 97

Reported inhibition at 1 µM for COc1ccc2c(c1)CCN(C(=O)c1cc(O)no1)[C@H]2C(=O)Nc1cc(F)c2c(c1)CCC2(C)C was 103

Looking up COc1ccc2c(n1)CCN(C(=O)CCCC(=O)O)[C@H]2C(=O)Nc1ccc([Si](C)(C)C)c(F)c1 , I see its inhibition at 1 µM listed as 100

Value of measured inhibition at 1 µM for the entry CCOCC(C)(C)c1c(F)cc(NC(=O)[C@H]2c3ccc(OC)cc3CCN2C(=O)Cc2cc(O)no2)cc1F : 102

# inhibition at 1 µM (compound: COCc1ccc2c(c1)CCN(C(=O)c1cc(O)no1)[C@H]2C(=O)Nc1cc(F)c(C(C)(C)COC)c(F)c1 ) is 102
